The reported measurements were obtained from paper PMC5374206.

System: methicillin-resistant S. aureus (MRSA) clinical isolates
Test: MIC and MBC against clinical MRSA isolates
Assay type: cell-based
Details: Staphylococcus aureus, MRSA strain 226, ST59, read-out: MIC
metric: MIC (µM)
Report only the number, with the unit µM understood.

# count of solved cases: 3
compound="CCOC(=O)C1=C(c2ccccc2)N=c2sc(=Cc3ccc(-c4ccc(C(=O)O)cc4)o3)c(=O)n2C1c1ccc(Cl)cc1 (stereo not shown)" metric=MIC assay_result=6.25
compound="CCOC(=O)C1=C(c2ccccc2)N=c2sc(=Cc3ccc(-c4cccc(C(=O)O)c4)o3)c(=O)n2C1c1ccc(F)cc1 (stereo not shown)" metric=MIC assay_result=6.25
compound="O=C(O)c1cccc(-c2ccc(C=c3sc4n(c3=O)C(c3ccc(F)cc3)C=C(c3ccccc3)N=4)o2)c1 (stereo not shown)" metric=MIC assay_result=6.25

Here is another compound to look at.
Problem: Fill in the recorded MIC for this compound, with methicillin-resistant S. aureus (MRSA) clinical isolates as test system: CCOC(=O)C1=C(c2ccccc2)N=c2sc(=Cc3ccc(-c4ccc(C(=O)O)cc4)o3)c(=O)n2C1c1ccc(F)cc1 (stereo not shown)
Solution: 6.25
